Data origin, for the record: paper PMC12136037

- experimentalTarget: ~100 representative kinases (Homo sapiens, UniProt Q99683)
- Construct: Recombinant protein kinase domains with a concentration of 2 μM
- Sequence (Q99683 1-1374): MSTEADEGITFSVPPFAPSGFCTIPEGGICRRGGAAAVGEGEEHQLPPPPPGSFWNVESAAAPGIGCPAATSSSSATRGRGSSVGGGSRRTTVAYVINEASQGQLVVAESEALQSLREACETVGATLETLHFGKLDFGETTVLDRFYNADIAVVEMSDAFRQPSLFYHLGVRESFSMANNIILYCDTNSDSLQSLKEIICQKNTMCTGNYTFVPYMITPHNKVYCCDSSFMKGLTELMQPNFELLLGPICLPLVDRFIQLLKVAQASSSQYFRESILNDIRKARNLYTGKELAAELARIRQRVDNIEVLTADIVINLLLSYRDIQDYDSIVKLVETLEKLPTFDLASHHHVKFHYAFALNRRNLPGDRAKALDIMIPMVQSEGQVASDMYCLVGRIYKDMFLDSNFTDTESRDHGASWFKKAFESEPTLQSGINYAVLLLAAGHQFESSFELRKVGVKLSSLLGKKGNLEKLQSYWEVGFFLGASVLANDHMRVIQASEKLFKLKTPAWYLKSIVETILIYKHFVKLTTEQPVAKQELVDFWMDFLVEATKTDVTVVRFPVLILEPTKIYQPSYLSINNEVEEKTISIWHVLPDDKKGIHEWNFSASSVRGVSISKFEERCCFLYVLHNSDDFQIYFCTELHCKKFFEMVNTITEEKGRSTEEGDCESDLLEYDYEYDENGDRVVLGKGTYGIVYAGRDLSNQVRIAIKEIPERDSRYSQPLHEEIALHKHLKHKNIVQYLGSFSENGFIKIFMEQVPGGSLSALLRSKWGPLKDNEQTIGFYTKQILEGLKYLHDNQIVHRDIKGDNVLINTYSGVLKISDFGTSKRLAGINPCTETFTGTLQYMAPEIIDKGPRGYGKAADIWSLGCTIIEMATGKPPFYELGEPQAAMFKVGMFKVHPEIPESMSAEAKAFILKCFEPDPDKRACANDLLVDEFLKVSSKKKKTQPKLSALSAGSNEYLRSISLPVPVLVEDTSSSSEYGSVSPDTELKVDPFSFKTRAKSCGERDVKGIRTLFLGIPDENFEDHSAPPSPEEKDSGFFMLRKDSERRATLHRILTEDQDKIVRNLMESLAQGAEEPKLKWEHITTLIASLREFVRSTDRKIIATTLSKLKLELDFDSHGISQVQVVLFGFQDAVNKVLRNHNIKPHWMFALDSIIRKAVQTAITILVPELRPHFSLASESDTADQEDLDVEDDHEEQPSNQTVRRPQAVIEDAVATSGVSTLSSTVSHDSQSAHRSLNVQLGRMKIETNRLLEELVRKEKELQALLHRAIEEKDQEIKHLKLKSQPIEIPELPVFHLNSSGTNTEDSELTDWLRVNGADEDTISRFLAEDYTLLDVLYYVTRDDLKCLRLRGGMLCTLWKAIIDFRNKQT
- measurementNotes: DSF 100 kinase selectivity screen;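 also: compound tested at 20 µM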
- Assay type: binding
- testContext: protein MAP3K5; average of three replicates
propertyMeasured: dTm (K)
Kindly provide the numeric value in K only, without the unit symbol.

Worked cases, dTm given:
{"columns": ["compound", "experimentalTarget", "propertyMeasured", "numericValue"],
 "data": [
  ["COc1cc(C(=O)N2CCOCC2)c(F)cc1Nc1nc(N(C)C)c2c(Cl)c[nH]c2n1 [Compound 36]", "~100 representative kinases (Homo sapiens, UniProt Q99683)", "dTm", 6.66],
  ["COc1cc(NC(=O)C2(C(=O)Nc3cccc(-c4c[nH]c5ncnc(N6CCOCC6)c45)c3)CC2)ccc1F [Compound 21]", "~100 representative kinases (Homo sapiens, UniProt Q99683)", "dTm", 2.37],
  ["CCSc1nc(NC)c2c(-c3cccc(NC(=O)Nc4cc(C(C)(C)C)nn4-c4ccc(C)cc4)c3)c[nH]c2n1 [Compound 32]", "~100 representative kinases (Homo sapiens, UniProt Q99683)", "dTm", 0.73],
  ["COc1cc2c(Oc3ccc(NC(=O)C4(C(=O)Nc5ccc(F)cc5)CC4)cc3F)ccnc2cc1OCCCN1CCOCC1 [Foretinib, reference compound]", "~100 representative kinases (Homo sapiens, UniProt Q99683)", "dTm", 2.33],
  ["Cc1cc(F)ccc1NC(=O)C1(C(=O)Nc2cccc(-c3c[nH]c4ncnc(N5CCOCC5)c34)c2)CC1 [Compound 24]", "~100 representative kinases (Homo sapiens, UniProt Q99683)", "dTm", 1.15]
]}

// recorded dTm for Cc1ccc(C(=O)Nc2ccc(CN3CCN(C)CC3)c(C(F)(F)F)c2)cc1C#Cc1c[nH]c2ncnc(N3CCOCC3)c12 [Compound 1] : 6.86

// recorded dTm for Cc1ccc(-n2nc(C(C)(C)C)cc2NC(=O)Nc2cccc(-c3c[nH]c4ncnc(N5CCOCC5)c34)c2)cc1 [Compound 29] : 4.49

###

Quick reference for dTm among some molecules
- experimentalTarget: ~100 representative kinases (Homo sapiens, UniProt P21802)
- Construct: Recombinant protein kinase domains with a concentration of 2 μM
- Sequence (P21802 22-821): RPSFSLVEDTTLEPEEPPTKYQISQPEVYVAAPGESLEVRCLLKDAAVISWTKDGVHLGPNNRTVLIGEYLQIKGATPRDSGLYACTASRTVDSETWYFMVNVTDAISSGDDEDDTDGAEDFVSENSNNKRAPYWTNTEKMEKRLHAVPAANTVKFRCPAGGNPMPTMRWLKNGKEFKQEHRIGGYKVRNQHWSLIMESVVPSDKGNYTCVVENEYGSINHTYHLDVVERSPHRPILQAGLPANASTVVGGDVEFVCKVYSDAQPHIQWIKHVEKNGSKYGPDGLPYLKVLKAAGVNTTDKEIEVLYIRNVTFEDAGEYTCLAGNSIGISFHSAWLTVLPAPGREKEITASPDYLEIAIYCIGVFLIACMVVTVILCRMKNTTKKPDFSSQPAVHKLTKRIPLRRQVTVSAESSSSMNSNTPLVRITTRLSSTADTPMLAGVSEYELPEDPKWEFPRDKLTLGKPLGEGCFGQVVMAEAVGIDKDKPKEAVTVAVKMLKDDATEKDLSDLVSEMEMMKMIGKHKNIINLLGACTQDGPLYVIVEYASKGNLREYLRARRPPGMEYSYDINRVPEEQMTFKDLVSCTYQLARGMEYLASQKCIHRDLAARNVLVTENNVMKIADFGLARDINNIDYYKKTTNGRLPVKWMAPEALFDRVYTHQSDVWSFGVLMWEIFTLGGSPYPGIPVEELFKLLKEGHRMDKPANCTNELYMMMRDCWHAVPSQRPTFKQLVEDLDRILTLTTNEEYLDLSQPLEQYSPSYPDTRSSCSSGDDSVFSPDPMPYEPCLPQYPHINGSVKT
- measurementNotes: DSF 100 kinase selectivity screen;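 also: compound tested at 20 µM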
- Format: binding
- testContext: protein FGFR2; average of three replicates
Kindly provide the numeric value in K only, without the unit symbol.

{"columns": ["structure", "dTm (K)"],
 "data": [
  ["O=C(Nc1cccc(-c2c[nH]c3ncnc(N4CCOCC4)c23)c1)C1(C(=O)Nc2ccc(F)cc2F)CC1", 2.08],
  ["O=C(Nc1cc(F)cc(Br)c1)C1(C(=O)Nc2cccc(-c3c[nH]c4ncnc(N5CCOCC5)c34)c2)CC1", 2.02],
  ["Cc1ccc(C(=O)Nc2ccc(CN3CCN(C)CC3)c(C(F)(F)F)c2)cc1C#Cc1c[nH]c2ncnc(N3CCOCC3)c12", 4.16]
]}

// recorded dTm for CCSc1nc(NC)c2c(-c3cccc(NC(=O)Nc4cc(C(C)(C)C)nn4-c4ccc(C)cc4)c3)c[nH]c2n1 : -0.15

###

- experimentalTarget: ~100 representative kinases (Homo sapiens, UniProt O14733)
- Construct: Recombinant protein kinase domains with a concentration of 2 μM
- Sequence (O14733 whole entry, the tested form may be a part): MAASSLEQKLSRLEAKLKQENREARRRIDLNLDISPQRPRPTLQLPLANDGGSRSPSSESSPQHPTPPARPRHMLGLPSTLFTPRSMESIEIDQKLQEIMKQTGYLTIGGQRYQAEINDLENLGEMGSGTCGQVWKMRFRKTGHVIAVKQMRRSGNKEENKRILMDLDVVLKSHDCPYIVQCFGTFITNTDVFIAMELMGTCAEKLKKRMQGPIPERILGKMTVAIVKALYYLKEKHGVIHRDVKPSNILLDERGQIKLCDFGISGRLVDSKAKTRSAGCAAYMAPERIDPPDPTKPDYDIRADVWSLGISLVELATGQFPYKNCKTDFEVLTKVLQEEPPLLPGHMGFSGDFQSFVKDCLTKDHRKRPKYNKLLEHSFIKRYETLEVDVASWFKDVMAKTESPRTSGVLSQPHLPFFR
- measurementNotes: DSF 100 kinase selectivity screen;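 also: compound tested at 20 µM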
- Assay type: binding
- testContext: protein MAP2K7; average of three replicates
propertyMeasured: dTm (K)
Kindly provide the numeric value in K only, without the unit symbol.

// recorded dTm for CN[C@@H]1C[C@H]2O[C@@](C)([C@@H]1OC)n1c3ccccc3c3c4c(c5c6ccccc6n2c5c31)C(=O)NC4 : 7.05

// recorded dTm for C[C@@H]1CN(c2cc(-c3n[nH]c4ccc(OC5(C)CC5)cc34)ncn2)C[C@H](C)O1 : -0.41

// recorded dTm for O=C(Nc1ccccc1)C1(C(=O)Nc2cccc(-c3c[nH]c4ncnc(N5CCOCC5)c34)c2)CC1 : 4.30

// recorded dTm for O=C(Nc1cccc(-c2c[nH]c3ncnc(N4CCOCC4)c23)c1)C1(C(=O)Nc2ccc(F)c(Br)c2F)CC1 : 3.31

###

- experimentalTarget: ~100 representative kinases (Homo sapiens)
- Construct: Recombinant protein kinase domains with a concentration of 2 μM
- measurementNotes: DSF 100 kinase selectivity screen;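 also: compound tested at 20 µM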
- Assay type: binding
- testContext: Protein BMPR2; average of three replicates
Quick reference for dTm among some molecules
Record the result as a number with its unit.

{"columns": ["molecule", "dTm"],
 "data": [
  ["Cc1cc(F)ccc1NC(=O)C1(C(=O)Nc2cccc(-c3c[nH]c4ncnc(N5CCOCC5)c34)c2)CC1", "0.57 K"],
  ["CC(C)(C)c1cc(NC(=O)Nc2cccc(-c3c[nH]c4ncnc(N5CCOCC5)c34)c2)n(-c2ccc3ncccc3c2)n1", "0.69 K"],
  ["CN[C@@H]1C[C@H]2O[C@@](C)([C@@H]1OC)n1c3ccccc3c3c4c(c5c6ccccc6n2c5c31)C(=O)NC4", "3.02 K"]
]}

// recorded dTm for CNC(=O)c1cc(Oc2ccc(NC(=O)Nc3cc(C(C)(C)C)nn3-c3ccc4ncccc4c3)c(F)c2)ccn1 [Rebastinib, reference compound] : -0.70 K

// recorded dTm for Cc1ccc(-n2nc(C(C)(C)C)cc2NC(=O)Nc2cccc(-c3c[nH]c4ncnc(N5CCOCC5)c34)c2)cc1 : 0.97 K

// recorded dTm for Cc1cc(NC(=O)C2(C(=O)Nc3ccc(F)cc3)CC2)cc(-c2c[nH]c3ncnc(N4CCOCC4)c23)c1 : 0.52 K

// recorded dTm for O=C(Nc1cccc(-c2c[nH]c3ncnc(N4CCOCC4)c23)c1)C1(C(=O)Nc2ccc(F)c(Cl)c2)CC1 : 1.13 K

// recorded dTm for O=C(Nc1cccc(-c2c[nH]c3ncnc(N4CCOCC4)c23)c1)C1(C(=O)Nc2cc(Br)c(F)cc2F)CC1 : 0.20 K

###

Quick reference for dTm among some compounds
- experimentalTarget: ~100 representative kinases (Homo sapiens, UniProt P68400)
- Construct: Recombinant protein kinase domains with a concentration of 2 μM
- Sequence (P68400 whole entry, the tested form may be a part): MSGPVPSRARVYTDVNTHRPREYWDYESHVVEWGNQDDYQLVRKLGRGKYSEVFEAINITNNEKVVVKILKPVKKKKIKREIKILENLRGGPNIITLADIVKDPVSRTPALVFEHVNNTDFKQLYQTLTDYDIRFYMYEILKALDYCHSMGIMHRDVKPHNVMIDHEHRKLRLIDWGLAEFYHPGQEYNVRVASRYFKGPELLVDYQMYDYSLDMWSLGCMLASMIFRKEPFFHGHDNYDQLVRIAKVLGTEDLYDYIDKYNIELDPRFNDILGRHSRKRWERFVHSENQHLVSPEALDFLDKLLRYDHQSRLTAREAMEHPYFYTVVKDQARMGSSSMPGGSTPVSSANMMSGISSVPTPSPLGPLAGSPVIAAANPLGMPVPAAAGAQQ
- measurementNotes: DSF 100 kinase selectivity screen;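 also: compound tested at 20 µM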
- Assay type: binding
- testContext: Protein CK2A1; average of three replicates
- Protocol: Recombinant protein kinase domains with a concentration of 2 μM were mixed with a 20 μM compound solution in dimethyl sulfoxide (DMSO), 20 mM Hepes (pH 7.5), and 500 mM NaCl. SYPRO Orange (5000×, Invitrogen) was added as a fluorescence probe (1μl/ml). Subsequently, temperature-dependent protein unfolding profiles were measured using the QuantStudio 5 realtime PCR machine (Thermo Fisher Scientific, Waltham, MA, USA). […] The temperature was raised with a step rate of 3°C/min. […]
Kindly provide the numeric value in K only, without the unit symbol.

Worked cases, dTm given:
{"columns": ["compound", "unitAbbrev", "dTm"],
 "data": [
  ["CCNc1nc(Nc2cc(F)c(C(=O)N3CCOCC3)cc2OC)ncc1C(F)(F)F [GNE-7915]", "K", 1.87],
  ["Cc1ccc(C(=O)Nc2ccc(CN3CCN(C)CC3)c(C(F)(F)F)c2)cc1C#Cc1cnc2[nH]ncc2c1 [GZD-824, reference compound]", "K", -1.14],
  ["Cc1ccc(NC(=O)C2(C(=O)Nc3cccc(-c4c[nH]c5ncnc(N6CCOCC6)c45)c3)CC2)cc1 [Compound 14]", "K", 1.79],
  ["Cc1cc(NC(=O)C2(C(=O)Nc3cccc(-c4c[nH]c5ncnc(N6CCOCC6)c45)c3)CC2)ccc1F [Compound 20]", "K", -0.56]
]}

Okay, next one:
// recorded dTm for CCc1ccc(NC(=O)C2(C(=O)Nc3cccc(-c4c[nH]c5ncnc(N6CCOCC6)c45)c3)CC2)cc1 [Compound 15] : 2.19
